target: ATP-dependent 6-phosphofructokinase (Trypanosoma brucei); assay: Inhibition of Trypanosoma brucei phosphofructokinase assessed as enzyme residual activity at 5 mM
Activity reference
measured endpoint: Activity (%)

OC[C@H](Cc1ccccc1)NC[C@H]1O[C@H](CO)[C@@H](O)[C@@H]1O
83
Cc1ccc(CNC[C@H]2O[C@H](CO)[C@@H](O)[C@@H]2O)cc1C
59
COC[C@H](C)NC[C@H]1O[C@H](CO)[C@@H](O)[C@@H]1O
35
OC[C@H]1O[C@H](CNC2CCCc3ccccc32)[C@@H](O)[C@@H]1O (some centres undefined)
62

* * *

target: UniProt O15648; assay: Inhibition of Trypanosoma brucei phosphofructokinase assessed as enzyme residual activity at 5 mM
Field: class. Source value: Activity. Ranges: category 1 = under 50%, category 2 = from 50% up to 60%, category 3 = 60% and over

OC[C@H]1O[C@H](CNCc2cccc(Cl)c2)[C@@H](O)[C@@H]1O
category 3
OC[C@H]1O[C@H](CNCc2cccc(C(F)(F)F)c2)[C@@H](O)[C@@H]1O
category 1
CC(CCc1ccccc1)NC[C@H]1O[C@H](CO)[C@@H](O)[C@@H]1O (stereo partly specified)
category 3
OC[C@H]1O[C@H](CNCc2cccc(F)c2)[C@@H](O)[C@@H]1O
category 2
OC[C@H]1O[C@H](CN[C@H]2c3ccccc3C[C@H]2O)[C@@H](O)[C@@H]1O
category 2
Cc1ccc(CNC[C@H]2O[C@H](CO)[C@@H](O)[C@@H]2O)cc1
category 3
OC[C@H]1O[C@H](CNCc2ccc(Cl)cc2)[C@@H](O)[C@@H]1O
category 3
OC[C@H]1O[C@H](CNC2CCc3ccccc32)[C@@H](O)[C@@H]1O (stereo partly specified)
category 1
OC[C@H]1O[C@H](CNC2CCCCCC2)[C@@H](O)[C@@H]1O
category 3
OCCC(NC[C@H]1O[C@H](CO)[C@@H](O)[C@@H]1O)c1ccccc1 (stereo partly specified)
category 1
CCCC(C)NC[C@H]1O[C@H](CO)[C@@H](O)[C@@H]1O (stereo partly specified)
category 3
CC(NC[C@H]1O[C@H](CO)[C@@H](O)[C@@H]1O)C(O)c1ccccc1 (stereo partly specified)
category 3
CCC(CO)NC[C@H]1O[C@H](CO)[C@@H](O)[C@@H]1O (stereo partly specified)
category 1
CC(C)CCC(C)NC[C@H]1O[C@H](CO)[C@@H](O)[C@@H]1O (stereo partly specified)
category 1
OC[C@H]1O[C@H](CNC2CCCC2)[C@@H](O)[C@@H]1O
category 3
C[C@@H](NC[C@H]1O[C@H](CO)[C@@H](O)[C@@H]1O)c1ccc2ccccc2c1
category 1
OC[C@@H](Cc1ccccc1)NC[C@H]1O[C@H](CO)[C@@H](O)[C@@H]1O
category 3
OC[C@H]1O[C@H](CNC2CCC2)[C@@H](O)[C@@H]1O
category 2
CC(C)CCCC(C)NC[C@H]1O[C@H](CO)[C@@H](O)[C@@H]1O (stereo partly specified)
category 3
OC[C@H]1O[C@H](CNC2Cc3ccccc3C2)[C@@H](O)[C@@H]1O
category 1
OC[C@H]1O[C@H](CNC2CCCCC2)[C@@H](O)[C@@H]1O
category 3
OC[C@H]1O[C@H](CN[C@@H]2c3ccccc3C[C@@H]2O)[C@@H](O)[C@@H]1O
category 2
Cc1ccc(C)c(CNC[C@H]2O[C@H](CO)[C@@H](O)[C@@H]2O)c1
category 3
OCC(Cc1ccccc1)NC[C@H]1O[C@H](CO)[C@@H](O)[C@@H]1O (stereo partly specified)
category 1
OC[C@H]1O[C@H](CNCc2ccc(Cl)c(Cl)c2)[C@@H](O)[C@@H]1O
category 1
OC[C@H]1O[C@H](CNCc2ccc(-c3ccccc3)cc2)[C@@H](O)[C@@H]1O
category 3
OC[C@H]1O[C@H](CNCc2ccc(Cl)cc2Cl)[C@@H](O)[C@@H]1O
category 2
CC(C)C[C@H](CO)NC[C@H]1O[C@H](CO)[C@@H](O)[C@@H]1O
category 2
OC[C@H]1O[C@H](CNC(c2ccccc2)c2ccccc2)[C@@H](O)[C@@H]1O
category 1
OC[C@H]1O[C@H](CNCc2ccccc2Cl)[C@@H](O)[C@@H]1O
category 3
OC[C@H]1O[C@H](CNCc2ccccc2F)[C@@H](O)[C@@H]1O
category 3
Cc1ccccc1CNC[C@H]1O[C@H](CO)[C@@H](O)[C@@H]1O
category 3
CC(C)C[C@@H](CO)NC[C@H]1O[C@H](CO)[C@@H](O)[C@@H]1O
category 3
Cc1ccc(CNC[C@H]2O[C@H](CO)[C@@H](O)[C@@H]2O)c(C)c1
category 3
OC[C@H]1O[C@H](CN[C@H]2C[C@@H]3CC[C@@H]2C3)[C@@H](O)[C@@H]1O
category 1
OC[C@H]1O[C@H](CNC2CCCCCCC2)[C@@H](O)[C@@H]1O
category 3
CC(CCCC(C)(C)O)NC[C@H]1O[C@H](CO)[C@@H](O)[C@@H]1O (stereo partly specified)
category 2

* * *

target: ATP-dependent 6-phosphofructokinase (Trypanosoma brucei) (UniProt O15648); assay: Inhibition of Trypanosoma brucei phosphofructokinase assessed as enzyme residual activity at 1 mM
Sequence (O15648 whole entry): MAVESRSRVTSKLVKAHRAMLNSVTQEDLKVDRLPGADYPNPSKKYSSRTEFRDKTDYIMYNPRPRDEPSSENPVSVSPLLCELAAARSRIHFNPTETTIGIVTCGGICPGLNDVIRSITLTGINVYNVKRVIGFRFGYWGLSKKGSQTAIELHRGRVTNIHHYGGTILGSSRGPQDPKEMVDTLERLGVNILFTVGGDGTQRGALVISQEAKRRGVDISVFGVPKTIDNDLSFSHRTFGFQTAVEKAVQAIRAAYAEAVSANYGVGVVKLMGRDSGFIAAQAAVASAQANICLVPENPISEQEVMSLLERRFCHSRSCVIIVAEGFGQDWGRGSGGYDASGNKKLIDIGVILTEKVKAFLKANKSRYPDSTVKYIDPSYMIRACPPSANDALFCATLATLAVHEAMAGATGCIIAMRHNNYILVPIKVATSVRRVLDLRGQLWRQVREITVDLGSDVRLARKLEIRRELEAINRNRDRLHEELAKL
measured endpoint: Activity (%)

C=CCNC(=O)[C@H]1O[C@H](CNCc2ccc(Cl)c(Cl)c2)[C@@H](O)[C@@H]1O
2
O=C(NCc1ccc(Cl)c(Cl)c1)[C@H]1O[C@H](CNC2CCCCCC2)[C@@H](O)[C@@H]1O
0.4
O=C(Nc1ccc([N+](=O)[O-])cc1)[C@H]1O[C@H](CNCc2ccc(Cl)c(Cl)c2)[C@@H](O)[C@@H]1O
0.8
O=C(Nc1ccccc1)[C@H]1O[C@H](CNCc2ccc(Cl)c(Cl)c2)[C@@H](O)[C@@H]1O
5.5
O=C(NCc1ccccc1)[C@H]1O[C@H](CNCc2ccc(Cl)c(Cl)c2)[C@@H](O)[C@@H]1O
4
O=C(Nc1cccc([N+](=O)[O-])c1)[C@H]1O[C@H](CNCc2ccc(Cl)c(Cl)c2)[C@@H](O)[C@@H]1O
1.7
O=C(NC1CCCCCC1)[C@H]1O[C@H](CNCc2ccc(Cl)c(Cl)c2)[C@@H](O)[C@@H]1O
4.7
O=C(NCc1ccc(Cl)c(Cl)c1)[C@H]1O[C@H](CNCc2ccc(Cl)c(Cl)c2)[C@@H](O)[C@@H]1O
0.9

* * *

target: Pyruvate kinase (Leishmania mexicana) (UniProt Q27686); assay: Inhibition of Leishmania mexicana pyruvate kinase assessed as enzyme residual activity at 5 mM
Sequence (Q27686 whole entry): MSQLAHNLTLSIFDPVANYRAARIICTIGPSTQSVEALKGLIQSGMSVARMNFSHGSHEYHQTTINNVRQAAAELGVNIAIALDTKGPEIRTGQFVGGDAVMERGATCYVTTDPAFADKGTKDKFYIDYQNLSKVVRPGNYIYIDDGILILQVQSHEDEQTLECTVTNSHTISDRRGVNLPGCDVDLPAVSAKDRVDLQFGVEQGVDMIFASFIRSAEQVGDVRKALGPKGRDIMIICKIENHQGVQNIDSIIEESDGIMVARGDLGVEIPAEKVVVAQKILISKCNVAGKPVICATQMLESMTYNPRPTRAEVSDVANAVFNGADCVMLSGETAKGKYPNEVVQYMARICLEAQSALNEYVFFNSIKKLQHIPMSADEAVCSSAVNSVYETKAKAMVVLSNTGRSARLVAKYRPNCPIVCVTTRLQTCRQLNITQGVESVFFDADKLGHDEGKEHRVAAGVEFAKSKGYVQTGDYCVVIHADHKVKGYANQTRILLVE
Label y when Activity >= 80%; otherwise n.

OC[C@H]1O[C@H](CNC2CCc3ccccc32)[C@@H](O)[C@@H]1O (stereo not given in full)
y
OC[C@H]1O[C@H](CNCc2ccc(Cl)c(Cl)c2)[C@@H](O)[C@@H]1O
n
OC[C@H]1O[C@H](CNCc2ccccc2F)[C@@H](O)[C@@H]1O
n
CC[C@@H](C)NC[C@H]1O[C@H](CO)[C@@H](O)[C@@H]1O
n
OC[C@H]1O[C@H](CNCc2cccc(Cl)c2)[C@@H](O)[C@@H]1O
y
Cc1ccccc1CNC[C@H]1O[C@H](CO)[C@@H](O)[C@@H]1O
y
OCC(Cc1ccccc1)NC[C@H]1O[C@H](CO)[C@@H](O)[C@@H]1O (stereo not given in full)
n
CC(C)[C@H](C)NC[C@H]1O[C@H](CO)[C@@H](O)[C@@H]1O
n

* * *

biological target: ATP-dependent 6-phosphofructokinase (Trypanosoma brucei) (UniProt O15648); assay: Inhibition of Trypanosoma brucei phosphofructokinase assessed as enzyme residual activity at 5 mM
Activity reference
measured endpoint: Activity (%)

CC(C)[C@@H](C)NC[C@H]1O[C@H](CO)[C@@H](O)[C@@H]1O
51
OC[C@H]1O[C@H](CNCc2ccc(F)cc2)[C@@H](O)[C@@H]1O
59
CC(C)[C@H](C)NC[C@H]1O[C@H](CO)[C@@H](O)[C@@H]1O
49
Cc1cccc(CNC[C@H]2O[C@H](CO)[C@@H](O)[C@@H]2O)c1
61
